# assay target: AKR1B15 (Homo sapiens, UniProt C9JRZ8)
# Construct: made in house; host or cells: E. coli BL21(DE3), with or without chaperone plasmids pBB540/pBB542
# Sequence (C9JRZ8 whole entry): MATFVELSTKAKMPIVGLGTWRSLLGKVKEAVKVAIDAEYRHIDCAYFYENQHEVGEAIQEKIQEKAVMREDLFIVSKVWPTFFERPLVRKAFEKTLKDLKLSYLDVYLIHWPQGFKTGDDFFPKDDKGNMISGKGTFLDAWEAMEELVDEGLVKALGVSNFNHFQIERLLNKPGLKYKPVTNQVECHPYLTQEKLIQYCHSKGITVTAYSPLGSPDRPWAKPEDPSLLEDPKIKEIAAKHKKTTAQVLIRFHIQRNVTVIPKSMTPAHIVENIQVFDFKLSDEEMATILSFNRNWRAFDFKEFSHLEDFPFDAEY
# test summary: Spectrophotometric activity assay (NADPH decrease at 340 nm), substrate kinetics
# Type: biochemical
# test parameters: substrate, spectrophotometric, pH 7.0, 25°C, 0.2 mM NADPH
The entries below are paired with their reported k cat.
metric: k cat (s⁻¹)

{"compound": "CCC/C=C/C=O [trans-2-hexenal]", "metric": "k cat", "readout value": 0.188}
{"compound": "CC(C)=CCCC(C)=CC=O (mixture of isomers)", "metric": "k cat", "readout value": 0.0917}
{"compound": "CC(=O)C(C)=O", "metric": "k cat", "readout value": 0.177}
{"compound": "CC(C)=CCCC(C)=CCCC(C)=CC=O", "metric": "k cat", "readout value": 0.08}
{"compound": "C=CC=O", "metric": "k cat", "readout value": 0.147}
{"compound": "O=C/C=C/c1ccccc1", "metric": "k cat", "readout value": 0.222}
{"compound": "O=C1C=CCCC1", "metric": "k cat", "readout value": 0.0735}
